- System: U-2932
- assay-protocol: growth inhibition by drug plus 177Lu-lilotomab satetraxetan (1 - RLU/untreated control) (fraction); higher = stronger inhibition
- assay-context: 1000 nM; time (day): 4; 177Lu-lilotomab satetraxetan 1 ug/ml
measurement-label: growth inhibition by drug plus 177Lu-lilotomab satetraxetan
// no unit string in output, number only

Report growth inhibition by drug plus 177Lu-lilotomab satetraxetan, nothing else, for this compound: O=c1cc(N2CCOCC2)oc2c(-c3ccccc3)cccc12
0.0857

Report growth inhibition by drug plus 177Lu-lilotomab satetraxetan, nothing else, for this compound: CCCS(=O)(=O)Nc1ccc(F)c(C(=O)c2c[nH]c3ncc(-c4ccc(Cl)cc4)cc23)c1F [Vemurafenib (PLX4032)]
-0.047

Report growth inhibition by drug plus 177Lu-lilotomab satetraxetan, nothing else, for this compound: CC(=O)O[C@]1(C(C)=O)CC[C@H]2[C@@H]3C[C@H](C)C4=CC(=O)CC[C@]4(C)[C@H]3CC[C@@]21C [Medroxyprogesterone acetate]
0.176

Report growth inhibition by drug plus 177Lu-lilotomab satetraxetan, nothing else, for this compound: C=CCc1cccc(/C=N/NC(=O)CN2CCN(Cc3ccccc3)CC2)c1O
0.163

Report growth inhibition by drug plus 177Lu-lilotomab satetraxetan, nothing else, for this compound: C[C@@H](Oc1cc(-c2cnn(C3CCNCC3)c2)cnc1N)c1c(Cl)ccc(F)c1Cl
0.223

Report growth inhibition by drug plus 177Lu-lilotomab satetraxetan, nothing else, for this compound: COCC[n+]1c2c(n(Cc3cnccn3)c1C)C(=O)c1ccccc1C2=O
0.988

###

Would you kindly list growth inhibition by drug plus 177Lu-lilotomab satetraxetan for each of these compounds?
- System: U-2932
- assay-protocol: growth inhibition by drug plus 177Lu-lilotomab satetraxetan (1 - RLU/untreated control) (fraction); higher = stronger inhibition
- assay-context: 1000 nM; time (day): 5; 177Lu-lilotomab satetraxetan 1 ug/ml
Counter-ions that a name gives are not always drawn.
// no unit string in output, number only

Report growth inhibition by drug plus 177Lu-lilotomab satetraxetan, nothing else, for this compound: COc1cc([C@@H]2c3cc4c(cc3[C@@H](O[C@@H]3O[C@@H]5CO[C@@H](C)O[C@H]5[C@H](O)[C@H]3O)[C@H]3COC(=O)[C@H]23)OCO4)cc(OC)c1O [Etoposide (VP-16)]
0.945

Report growth inhibition by drug plus 177Lu-lilotomab satetraxetan, nothing else, for this compound: CCN(CC)CCNC(=O)c1c(C)[nH]c(/C=C2\C(=O)Nc3ccc(F)cc32)c1C [Sunitinib Malate (Sutent)]
-0.0458

Report growth inhibition by drug plus 177Lu-lilotomab satetraxetan, nothing else, for this compound: Cc1ccc(-n2nc(C(C)(C)C)cc2NC(=O)Nc2ccc(OCCN3CCOCC3)c3ccccc23)cc1
0.32

Report growth inhibition by drug plus 177Lu-lilotomab satetraxetan, nothing else, for this compound: Nc1ccn([C@@H]2O[C@H](CO)[C@@H](O)[C@@H]2O)c(=O)n1
0.859

Report growth inhibition by drug plus 177Lu-lilotomab satetraxetan, nothing else, for this compound: Nc1nc(Nc2ccc(S(N)(=O)=O)cc2)nn1C(=O)c1c(F)cccc1F
0.661

Report growth inhibition by drug plus 177Lu-lilotomab satetraxetan, nothing else, for this compound: CC(=O)Nc1cccc(-n2c(=O)n(C3CC3)c(=O)c3c(Nc4ccc(I)cc4F)n(C)c(=O)c(C)c32)c1
0.258

Report growth inhibition by drug plus 177Lu-lilotomab satetraxetan, nothing else, for this compound: C[C@@H](O[C@H]1OCCN(Cc2n[nH]c(=O)[nH]2)[C@H]1c1ccc(F)cc1)c1cc(C(F)(F)F)cc(C(F)(F)F)c1 [Aprepitant (MK-0869)]
0.0779

Report growth inhibition by drug plus 177Lu-lilotomab satetraxetan, nothing else, for this compound: COc1cc2ncnc(Nc3cccc(Br)c3)c2cc1OC
0.0191

Report growth inhibition by drug plus 177Lu-lilotomab satetraxetan, nothing else, for this compound: C[S+]([O-])c1ccc(-c2nc(-c3ccc(F)cc3)c(-c3ccncc3)[nH]2)cc1 (configuration not stated)
0.325

Report growth inhibition by drug plus 177Lu-lilotomab satetraxetan, nothing else, for this compound: CCc1c2c(nc3ccc(OC(=O)N4CCC(N5CCCCC5)CC4)cc13)-c1cc3c(c(=O)n1C2)COC(=O)[C@]3(O)CC [Irinotecan HCl Trihydrate (Campto)]
0.965

Report growth inhibition by drug plus 177Lu-lilotomab satetraxetan, nothing else, for this compound: CN[C@@H](C)C(=O)N[C@H]1CN(C(=O)CC(C)C)CC[C@H]2CC[C@@H](C(=O)NC(c3ccccc3)c3ccccc3)N2C1=O
0.055

Report growth inhibition by drug plus 177Lu-lilotomab satetraxetan, nothing else, for this compound: O=NN(CCCl)C(=O)NC1CCCCC1
0.0893

Report growth inhibition by drug plus 177Lu-lilotomab satetraxetan, nothing else, for this compound: CC[C@H]1OC(=O)[C@H](C)[C@@H](O[C@H]2C[C@@](C)(OC)[C@@H](O)[C@H](C)O2)[C@H](C)[C@@H](O[C@@H]2O[C@H](C)C[C@H](N(C)C)[C@H]2O)[C@](C)(O)C[C@@H](C)CN(C)[C@H](C)[C@@H](O)[C@]1(C)O [Azithromycin (Zithromax)]
0.163

Report growth inhibition by drug plus 177Lu-lilotomab satetraxetan, nothing else, for this compound: O=c1[nH]cc(F)c(=O)[nH]1
0.184

Report growth inhibition by drug plus 177Lu-lilotomab satetraxetan, nothing else, for this compound: CC(C)(C)c1cc(NC(=O)Nc2ccc(-c3cn4c(n3)sc3cc(OCCN5CCOCC5)ccc34)cc2)no1
-0.0306

Report growth inhibition by drug plus 177Lu-lilotomab satetraxetan, nothing else, for this compound: COC(=O)C1=C(C)NC(C)=C(C(=O)OCCCN2CCC(c3ccccc3)(c3ccccc3)CC2)[C@H]1c1cccc([N+](=O)[O-])c1 [S-(+)-Niguldipine hydrochloride]
0.317

Report growth inhibition by drug plus 177Lu-lilotomab satetraxetan, nothing else, for this compound: CN(C)c1ccccc1CN1CCCN(Cc2ccccc2N(C)C)C1c1ccncc1
-0.031
